// reported relative viability for each item listed
tested on: NCI-H520; experiment: relative viability (nuclei count vs DMSO), 5 days (fraction); higher = more cells survive; details: first compound 0.005 µM

MOLECULE	relative viability
COc1cc2nccc(Oc3ccc(NC(=O)Nc4cc(C)on4)c(Cl)c3)c2cc1OC [Tivozanib] + C[C@]1(O)C[C@@H](c2nc(-c3ccc4ccc(-c5ccccc5)nc4c3)c3c(N)nccn32)C1 [Linsitinib] (partner 1 µM)	0.838
Nc1ccn([C@@H]2O[C@H](CO)[C@@H](O)[C@@H]2O)c(=O)n1 [Cytarabine] + CS(=O)(=O)CCNCc1ccc(-c2ccc3ncnc(Nc4ccc(OCc5cccc(F)c5)c(Cl)c4)c3c2)o1 [Lapatinib] (partner 2 µM)	0.557
COc1cc2nccc(Oc3ccc(NC(=O)Nc4cc(C)on4)c(Cl)c3)c2cc1OC [Tivozanib] + Cc1nc(Nc2ncc(C(=O)Nc3c(C)cccc3Cl)s2)cc(N2CCN(CCO)CC2)n1 [Dasatinib] (partner 0.075 µM)	0.183
Nc1ccn([C@@H]2O[C@H](CO)[C@@H](O)[C@@H]2O)c(=O)n1 [Cytarabine] + Nc1ncn([C@H]2C[C@H](O)[C@@H](CO)O2)c(=O)n1 [Decitabine] (partner 2 µM)	0.48
Nc1ccn([C@@H]2O[C@H](CO)[C@@H](O)[C@@H]2O)c(=O)n1 [Cytarabine] + C[C@]1(O)C[C@@H](c2nc(-c3ccc4ccc(-c5ccccc5)nc4c3)c3c(N)nccn32)C1 [Linsitinib] (partner 1 µM)	0.556
COc1cc2nccc(Oc3ccc(NC(=O)Nc4cc(C)on4)c(Cl)c3)c2cc1OC [Tivozanib] + Cc1nc(NC(=O)N2CCC[C@H]2C(N)=O)sc1-c1ccnc(C(C)(C)C(F)(F)F)c1 [Alpelisib] (partner 2 µM)	0.773
Nc1ccn([C@@H]2O[C@H](CO)[C@@H](O)[C@@H]2O)c(=O)n1 [Cytarabine] + CCNC(=O)c1noc(-c2cc(C(C)C)c(O)cc2O)c1-c1ccc(CN2CCOCC2)cc1 [Luminespib] (partner 0.01 µM)	0.218
COc1cc2nccc(Oc3ccc(NC(=O)Nc4cc(C)on4)c(Cl)c3)c2cc1OC [Tivozanib] + N=C(N)NC(=N)NCCc1ccccc1 [Phenformin] (partner 250 µM)	0.57
Nc1ccn([C@@H]2O[C@H](CO)[C@@H](O)[C@@H]2O)c(=O)n1 [Cytarabine] + Cc1cc(Nc2cc(N3CCN(C)CC3)nc(Sc3ccc(NC(=O)C4CC4)cc3)n2)n[nH]1 [Tozasertib] (partner 0.1 µM)	0.416
COc1cc2nccc(Oc3ccc(NC(=O)Nc4cc(C)on4)c(Cl)c3)c2cc1OC [Tivozanib] + COc1cc2c(Oc3ccc(NC(=O)C4(C(=O)Nc5ccc(F)cc5)CC4)cc3F)ccnc2cc1OCCCN1CCOCC1 [Foretinib] (partner 0.25 µM)	0.595
COc1cc2nccc(Oc3ccc(NC(=O)Nc4cc(C)on4)c(Cl)c3)c2cc1OC [Tivozanib] + CC(C)C[C@H](NC(=O)[C@H](Cc1ccccc1)NC(=O)c1cnccn1)B(O)O [Bortezomib] (partner 0.002 µM)	0.575
COc1cc2nccc(Oc3ccc(NC(=O)Nc4cc(C)on4)c(Cl)c3)c2cc1OC [Tivozanib] + CCNC(=O)c1noc(-c2cc(C(C)C)c(O)cc2O)c1-c1ccc(CN2CCOCC2)cc1 [Luminespib] (partner 0.01 µM)	0.287

* * *

system: NCI-H1755; test: relative viability (nuclei count vs DMSO), 5 days (fraction); higher = more cells survive; conditions: first compound 1.265 µM
// reported relative viability for each item listed

COMPOUND	relative viability
Cc1sc2c(c1C)C(c1ccc(Cl)cc1)=N[C@@H](CC(=O)OC(C)(C)C)c1nnc(C)n1-2 [JQ1] + CC(=O)c1c(C)c2cnc(Nc3ccc(N4CCNCC4)cn3)nc2n(C2CCCC2)c1=O [Palbociclib] (partner 0.5 µM)	0.388
Cc1sc2c(c1C)C(c1ccc(Cl)cc1)=N[C@@H](CC(=O)OC(C)(C)C)c1nnc(C)n1-2 [JQ1] + CS(=O)(=O)CCNCc1ccc(-c2ccc3ncnc(Nc4ccc(OCc5cccc(F)c5)c(Cl)c4)c3c2)o1 [Lapatinib] (partner 2 µM)	0.853
Cc1sc2c(c1C)C(c1ccc(Cl)cc1)=N[C@@H](CC(=O)OC(C)(C)C)c1nnc(C)n1-2 [JQ1] + C[C@@H](Oc1cc(-c2cnn(C3CCNCC3)c2)cnc1N)c1c(Cl)ccc(F)c1Cl [Crizotinib] (partner 1 µM)	0.67
Cc1sc2c(c1C)C(c1ccc(Cl)cc1)=N[C@@H](CC(=O)OC(C)(C)C)c1nnc(C)n1-2 [JQ1] + Cc1cc(Nc2cc(N3CCN(C)CC3)nc(Sc3ccc(NC(=O)C4CC4)cc3)n2)n[nH]1 [Tozasertib] (partner 0.1 µM)	0.444
Cc1sc2c(c1C)C(c1ccc(Cl)cc1)=N[C@@H](CC(=O)OC(C)(C)C)c1nnc(C)n1-2 [JQ1] + N=C(N)NC(=N)NCCc1ccccc1 [Phenformin] (partner 250 µM)	0.462
Cc1sc2c(c1C)C(c1ccc(Cl)cc1)=N[C@@H](CC(=O)OC(C)(C)C)c1nnc(C)n1-2 [JQ1] + Nc1ncn([C@H]2C[C@H](O)[C@@H](CO)O2)c(=O)n1 [Decitabine] (partner 2 µM)	0.731

* * *

tested on: NCI-H1651; experiment: relative viability (nuclei count vs DMSO), 5 days (fraction); higher = more cells survive; conditions: first compound 0.8 µM
MEASURE: relative viability

MOLECULE	MEASURE	ASSAY VALUE
Cc1cnc(-c2cnc(NCCNc3ccc(C#N)cn3)nc2-c2ccc(Cl)cc2Cl)[nH]1 + C[C@]1(O)C[C@@H](c2nc(-c3ccc4ccc(-c5ccccc5)nc4c3)c3c(N)nccn32)C1 [Linsitinib] (partner 1 µM)	relative viability	1.04
Cc1cnc(-c2cnc(NCCNc3ccc(C#N)cn3)nc2-c2ccc(Cl)cc2Cl)[nH]1 + CC(=O)c1c(C)c2cnc(Nc3ccc(N4CCNCC4)cn3)nc2n(C2CCCC2)c1=O [Palbociclib] (partner 0.5 µM)	relative viability	0.504
O=c1[nH]c2ccccc2n1C1CCN(CCCC(c2ccc(F)cc2)c2ccc(F)cc2)CC1 [Pimozide] + CC(=O)c1c(C)c2cnc(Nc3ccc(N4CCNCC4)cn3)nc2n(C2CCCC2)c1=O [Palbociclib] (partner 0.5 µM)	relative viability	0.534

* * *

system: LC-2-ad; test: relative viability (nuclei count vs DMSO), 5 days (fraction); higher = more cells survive; conditions: first compound 0.002 µM
// reported relative viability for each item listed

MOLECULE	relative viability
CC(=O)O[C@@]12CO[C@@H]1C[C@H](O)[C@@]1(C)C(=O)[C@H](O)C3=C(C)[C@@H](OC(=O)[C@H](O)[C@@H](NC(=O)OC(C)(C)C)c4ccccc4)C[C@@](O)([C@@H](OC(=O)c4ccccc4)[C@H]21)C3(C)C [Docetaxel] + CC(=O)Nc1cccc(-n2c(=O)n(C3CC3)c(=O)c3c(Nc4ccc(I)cc4F)n(C)c(=O)c(C)c32)c1 [Trametinib] (partner 0.02 µM)	0.345
CC(=O)O[C@@]12CO[C@@H]1C[C@H](O)[C@@]1(C)C(=O)[C@H](O)C3=C(C)[C@@H](OC(=O)[C@H](O)[C@@H](NC(=O)OC(C)(C)C)c4ccccc4)C[C@@](O)([C@@H](OC(=O)c4ccccc4)[C@H]21)C3(C)C [Docetaxel] + CC(=O)c1c(C)c2cnc(Nc3ccc(N4CCNCC4)cn3)nc2n(C2CCCC2)c1=O [Palbociclib] (partner 0.5 µM)	0.334
CC(=O)O[C@@]12CO[C@@H]1C[C@H](O)[C@@]1(C)C(=O)[C@H](O)C3=C(C)[C@@H](OC(=O)[C@H](O)[C@@H](NC(=O)OC(C)(C)C)c4ccccc4)C[C@@](O)([C@@H](OC(=O)c4ccccc4)[C@H]21)C3(C)C [Docetaxel] + Nc1ncn([C@H]2C[C@H](O)[C@@H](CO)O2)c(=O)n1 [Decitabine] (partner 2 µM)	0.465

* * *

// reported relative viability for each item listed
test system: SK-MES-1; assay: relative viability (nuclei count vs DMSO), 5 days (fraction); higher = more cells survive; settings: first compound 0.5 µM

MOLECULE	TARGET ENTITY	relative viability
Nc1ccn([C@@H]2O[C@H](CO)[C@@H](O)[C@@H]2O)c(=O)n1 [Cytarabine] + Cc1nc(Nc2ncc(C(=O)Nc3c(C)cccc3Cl)s2)cc(N2CCN(CCO)CC2)n1 [Dasatinib] (partner 0.075 µM)	SK-MES-1	0.113
Nc1ccn([C@@H]2O[C@H](CO)[C@@H](O)[C@@H]2O)c(=O)n1 [Cytarabine] + CC(=O)Nc1cccc(-n2c(=O)n(C3CC3)c(=O)c3c(Nc4ccc(I)cc4F)n(C)c(=O)c(C)c32)c1 [Trametinib] (partner 0.02 µM)	SK-MES-1	0.227
Nc1ccn([C@@H]2O[C@H](CO)[C@@H](O)[C@@H]2O)c(=O)n1 [Cytarabine] + COc1cc2c(Oc3ccc(NC(=O)C4(C(=O)Nc5ccc(F)cc5)CC4)cc3F)ccnc2cc1OCCCN1CCOCC1 [Foretinib] (partner 0.25 µM)	SK-MES-1	0.304
COc1cc2nccc(Oc3ccc(NC(=O)Nc4cc(C)on4)c(Cl)c3)c2cc1OC [Tivozanib] + CC1(C)CCC(c2ccc(Cl)cc2)=C(CN2CCN(c3ccc(C(=O)NS(=O)(=O)c4ccc(N[C@H](CCN5CCOCC5)CSc5ccccc5)c(S(=O)(=O)C(F)(F)F)c4)cc3)CC2)C1 [Navitoclax] (partner 0.5 µM)	SK-MES-1	1.18
Nc1ccn([C@@H]2O[C@H](CO)[C@@H](O)[C@@H]2O)c(=O)n1 [Cytarabine] + CS(=O)(=O)CCNCc1ccc(-c2ccc3ncnc(Nc4ccc(OCc5cccc(F)c5)c(Cl)c4)c3c2)o1 [Lapatinib] (partner 2 µM)	SK-MES-1	0.196
COc1cc2nccc(Oc3ccc(NC(=O)Nc4cc(C)on4)c(Cl)c3)c2cc1OC [Tivozanib] + CCNC(=O)c1noc(-c2cc(C(C)C)c(O)cc2O)c1-c1ccc(CN2CCOCC2)cc1 [Luminespib] (partner 0.01 µM)	SK-MES-1	0.807
COc1cc2nccc(Oc3ccc(NC(=O)Nc4cc(C)on4)c(Cl)c3)c2cc1OC [Tivozanib] + Nc1nc2[nH]cc(CCc3ccc(C(=O)N[C@@H](CCC(=O)O)C(=O)O)cc3)c2c(=O)[nH]1 [Pemetrexed] (partner 0.2 µM)	SK-MES-1	0.994
Nc1ccn([C@@H]2O[C@H](CO)[C@@H](O)[C@@H]2O)c(=O)n1 [Cytarabine] + Cc1cc(Nc2cc(N3CCN(C)CC3)nc(Sc3ccc(NC(=O)C4CC4)cc3)n2)n[nH]1 [Tozasertib] (partner 0.1 µM)	SK-MES-1	0.159
